- target-or-test-system: T1, recombinant human CD3 epsilon/gamma heterodimer (human, UniProt P07766 23-126; P09693 23-116)
- T1 construct: Recombinant protein in solution (200-50 nM) in the Octet assay; also called hCD3 E/G
- T1 sequence (P07766 23-126, chain 1 of 2): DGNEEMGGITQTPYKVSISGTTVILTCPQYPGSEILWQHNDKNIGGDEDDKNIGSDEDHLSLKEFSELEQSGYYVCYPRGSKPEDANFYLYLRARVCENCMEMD
- T1 sequence (P09693 23-116, chain 2 of 2): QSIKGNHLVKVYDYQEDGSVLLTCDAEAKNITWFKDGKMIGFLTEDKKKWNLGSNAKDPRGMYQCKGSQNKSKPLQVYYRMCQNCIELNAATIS
- protocol-notes: Octet BLI, mAb on FAB2G sensor, hCD3 E/G 200-50 nM; R^2 1.00
Reported Response values for the following binders.

Worked examples follow.
| binder | result |
| --- | --- |
| ABL-CD3-25 (antibody, V domains shown, Chimeric hybridoma mAb: human V, CH1, upper hinge; mouse middle hinge, CH2, CH3) VH: EVHLVESGGGLVKPGGSLRLSCAASGFTFSSYSMNWVRQAPGKGLEWVSSISSSSTYIYYADSVKGRFTISRDNAKNSLYLQMNSLRAEDTAVYYCAREPRTLGMDYWGQGILVTVSS VL: NFMLTQPHSVSESPGKTVTISCTRSSGSIASNYVQWYQQRPGSSPTTVIYEDNHRPSGVPDRFSGSIDSSSNSASLTISGLKTEDEADYFCQSFDSSNRVFGGGTKLTVL | 1.27 |
| ABL-CD3-6 (antibody, V domains shown, Chimeric hybridoma mAb: human V, CH1, upper hinge; mouse middle hinge, CH2, CH3) VH: EVQLVDSGGGLVKPGGSLRLSCAASGFTFSSYSMNWVRQAPGKGLEWVSSISSRGSYRNYADSVKGRFTISRDNAKNSLYLQMNSLRAEDTAVYYCARDRRELLLDCWGQGTLVTVSS VL: SYELTQPPSVSVSPGQTARITCSGDALPKKYAYWYQQKSGQAPVLVIYEDSKRPSGIPERFSGSSSGTMATLTISGAQVEDEADYYCYSTDSSGNHSWVFGGGTKLTVL | 0.17 |

Now for a further binder.
Form field: reported Response of ABL-CD3-15 (antibody, V domains shown, Chimeric hybridoma mAb: human V, CH1, upper hinge; mouse middle hinge, CH2, CH3) VH: EVQLVESGGGLVKPGGSLRLSCAASGFNCSSYSMNWVRQAPGKGLEWVSSISRSSNYIYYADSVKGRFSISRDDAKNSLYLQMNSLRAEDTAVYYCARERWIQLYSDYWGQGILVTVSS VL: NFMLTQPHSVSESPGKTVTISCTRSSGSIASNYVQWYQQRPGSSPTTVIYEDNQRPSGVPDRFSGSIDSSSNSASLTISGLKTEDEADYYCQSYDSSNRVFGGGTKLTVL
0.83
